For each of the binders below, state its IC50.
Target: T1, TNF receptor 1 Fc fusion protein (R&D Systems) (human, UniProt P19438 30-211, limits assumed)
T1 construct: also called recombinant TNF receptor 1 (p55); not shown: Fc part of the bought fusion protein, captured by an anti-human Fc antibody
T1 sequence (looked up): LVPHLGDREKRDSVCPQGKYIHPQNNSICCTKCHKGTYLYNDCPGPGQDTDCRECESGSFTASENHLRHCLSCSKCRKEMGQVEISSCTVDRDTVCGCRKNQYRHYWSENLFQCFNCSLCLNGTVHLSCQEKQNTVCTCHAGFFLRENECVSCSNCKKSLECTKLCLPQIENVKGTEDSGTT
Test: DOM1 receptor binding assay (RBA): dAb titrated against TNF binding to TNF receptor 1
Answers are plain numbers, in nM.

For each of the binders below, note its IC50.
1. TAR2-10-27 Leu115cys blocked (other, Cys115 blocked with N-ethylmaleimide, For numbering and entry offset see m28) VH: ASTEVQLLESGGGLVQPGGSLRLSCAASGFTFEWYWMGWVRQAPGKGLEWVSAISGSGGSTYYADSVKGRFTISRDNSKNTLYLQMNSLRAEDAAVYYCAKVKLGGGPNFGYRGQGTCVTVSS
2. TAR2-10-27 Glu89cys 30K MAL PEG (other, 30K MAL-PEG on Cys89, For numbering and entry offset see m28) VH: ASTEVQLLESGGGLVQPGGSLRLSCAASGFTFEWYWMGWVRQAPGKGLEWVSAISGSGGSTYYADSVKGRFTISRDNSKNTLYLQMNSLRACDAAVYYCAKVKLGGGPNFGYRGQGTLVTVSS
3. TAR2-10-27 Gln13cys 30K MAL PEG (other, 30K MAL-PEG on Cys13, For numbering and entry offset see m28) VH: ASTEVQLLESGGGLVCPGGSLRLSCAASGFTFEWYWMGWVRQAPGKGLEWVSAISGSGGSTYYADSVKGRFTISRDNSKNTLYLQMNSLRAEDAAVYYCAKVKLGGGPNFGYRGQGTLVTVSS
4. TAR2-10-27 Pro41cys 30K MAL PEG (other, 30K MAL-PEG on Cys41, For numbering and entry offset see m28) VH: ASTEVQLLESGGGLVQPGGSLRLSCAASGFTFEWYWMGWVRQACGKGLEWVSAISGSGGSTYYADSVKGRFTISRDNSKNTLYLQMNSLRAEDAAVYYCAKVKLGGGPNFGYRGQGTLVTVSS
5. TAR2-10-27 Pro41cys blocked (other, Cys41 blocked with N-ethylmaleimide, For numbering and entry offset see m28) VH: ASTEVQLLESGGGLVQPGGSLRLSCAASGFTFEWYWMGWVRQACGKGLEWVSAISGSGGSTYYADSVKGRFTISRDNSKNTLYLQMNSLRAEDAAVYYCAKVKLGGGPNFGYRGQGTLVTVSS
6. TAR2-10-27 Thr117cys 30K MAL PEG (other, 30K MAL-PEG on Cys117, For numbering and entry offset see m28) VH: ASTEVQLLESGGGLVQPGGSLRLSCAASGFTFEWYWMGWVRQAPGKGLEWVSAISGSGGSTYYADSVKGRFTISRDNSKNTLYLQMNSLRAEDAAVYYCAKVKLGGGPNFGYRGQGTLVCVSS
7. TAR2-10-27 Thr117cys blocked (other, Cys117 blocked with N-ethylmaleimide, For numbering and entry offset see m28) VH: ASTEVQLLESGGGLVQPGGSLRLSCAASGFTFEWYWMGWVRQAPGKGLEWVSAISGSGGSTYYADSVKGRFTISRDNSKNTLYLQMNSLRAEDAAVYYCAKVKLGGGPNFGYRGQGTLVCVSS
8. TAR2-10-27 Asp62cys blocked (other, Cys62 blocked with N-ethylmaleimide, For numbering and entry offset see m28) VH: ASTEVQLLESGGGLVQPGGSLRLSCAASGFTFEWYWMGWVRQAPGKGLEWVSAISGSGGSTYYACSVKGRFTISRDNSKNTLYLQMNSLRAEDAAVYYCAKVKLGGGPNFGYRGQGTLVTVSS

3
20
8
8
1
8
3
15
